# assayed_system: T1, mouse IL-2Rα (mouse) (UniProt P01590)
# T1 sequence (looked up): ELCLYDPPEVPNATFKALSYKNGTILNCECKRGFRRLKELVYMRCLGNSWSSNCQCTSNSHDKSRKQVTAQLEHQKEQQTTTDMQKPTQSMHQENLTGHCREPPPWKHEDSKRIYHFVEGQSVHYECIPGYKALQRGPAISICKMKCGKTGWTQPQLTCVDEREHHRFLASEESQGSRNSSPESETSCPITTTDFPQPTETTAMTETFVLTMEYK
# procedure_summary: ELISA, P.E. on coated antigen
Each entry below carries its recorded OD (PE binding ELISA).

[
  {
    "binder": "FJ1427_P035MP01H07 (VHH) VHH: EVQLVESGGGLVQAGGSLRLSCAASGRTLSGYAMAWFRQPPDKGREFVTAISSSGIVTHVLDSVKGRFTISRDNAKNTVYLQMNSLQPEDTALYFCAATASSYSDYEANYNYWGQGTLVTVSS",
    "OD (PE binding ELISA)": "0.049 OD450 nm"
  },
  {
    "binder": "FJ1427_P035MP01A01 (VHH) VHH: EVQLVESGGGLVQAGDSLRLSCAASGRSFRNYILAWYRQAPGKEREFLAAISWLDGTLYADSVEDRFTISRDNPKNTVHLQMDNLKPEDTAVYYCAADRGPVRPVLAPDVDYWGQGTQVSVSS",
    "OD (PE binding ELISA)": "0.046 OD450 nm"
  }
]
